Can you tell me protein stability index for the items I'm about to list?
B1: ZNF263 (parent)
chain: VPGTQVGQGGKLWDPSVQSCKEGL

Variants of: B1
Assay: protein stability index of a GFP-peptide fusion (GPS, HEK-293T) (PSI 1-6); higher = more stable;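 note: lentivirally expressed fusions sorted by FACS into six bins by GFP to DsRed ratio, PSI derived from sequencing read proportions per bin multiplied by bin number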
Conditions: c terminus: a fixed tail appended
One number for each entry.

Examples with their reported protein stability index follow.
>>> experimental_value("K21V")
3.89
>>> experimental_value("G3Y")
4.06
>>> experimental_value("G10H")
4.02
>>> experimental_value("L12Q")
4.72
>>> experimental_value("G7V")
3.87
>>> experimental_value("K11S")
4.35
>>> experimental_value("Q8A")
4.41
>>> experimental_value("G9P")
3.25
>>> experimental_value("L12K")
4.37
>>> experimental_value("G7N")
4.76

Give protein stability index for each of the items listed below.
1. Q5I
2. G10L
3. L24Y
4. Q5P

Reply:
1: 4.16; 2: 3.62; 3: 3.73; 4: 4.33

Give protein stability index for each of the items listed below.
1. P15Y
2. L24G
3. Q5M
4. G3V

Reply:
1. 3.16
2. 4.49
3. 3.79
4. 3.99

Give protein stability index for each of the items listed below.
1. S19Q
2. V17K
3. V6L

Reply:
[4.3, 4.33, 4.03]

Give protein stability index for each of the items listed below.
1. K21N
2. G7L
3. K21T

Reply:
1. 4.16
2. 3.77
3. 5.17

Give protein stability index for each of the items listed below.
1. L12I
2. C20W
3. P15F

Reply:
[3.65, 3.08, 2.86]

Give protein stability index for each of the items listed below.
1. K11P
2. E22P
3. P15I
4. G10E
5. G10R

Reply:
3.65
3.46
3.3
4.01
4.96

Give protein stability index for each of the items listed below.
1. G9A
2. P15V
3. S19H
4. P2Y

Reply:
[4.03, 3.63, 4.05, 2.83]

Give protein stability index for each of the items listed below.
1. L24N
2. K11G
3. T4L
4. L24I
5. E22Q

Reply:
1: 4.76; 2: 4.44; 3: 4.38; 4: 4.22; 5: 3.84
